System: D54 LucT luciferase reporter counterscreen, luminescence, 24 h
Assay: reporter signal increase, D54 LucT cells – cell-based, luminescence, cherry pick, counter-screen for N-linked glycosylation inhibitor project, dose response (AID 624404)
Results filed as inconclusive are left out.
ATTRIBUTE_MEASURED: AC35

• CCOc1cc(C(=O)Nc2ccc(N3CCOCC3)cc2)cc(Br)c1OC = 3660 nM
• O=C(Nc1c(Cl)ccc2nsnc12)c1ccc([N+](=O)[O-])o1 = 778 nM
• Cc1cccc(NC(=O)Nc2cccc(C#N)c2)n1 = 467 nM
• c1ccc(C2=Nn3c(nnc3-c3n[nH]c4c3CCC4)SC2)cc1 = 2250 nM
• COc1ccc(CCn2c(O)c(C=NCc3ccc4c(c3)OCO4)c(=O)[nH]c2=O)cc1OC = 678 nM
• O=C1OCC2=C1C(c1ccc3c(c1)OCO3)c1cc3c(cc1O2)OCO3 (stereo unspecified) = 352 nM
